Please respond with reported pKd for every item in the list.
TEST SYSTEM: MAGI1_2, Q96QZ7
Sequence (Q96QZ7 456-580): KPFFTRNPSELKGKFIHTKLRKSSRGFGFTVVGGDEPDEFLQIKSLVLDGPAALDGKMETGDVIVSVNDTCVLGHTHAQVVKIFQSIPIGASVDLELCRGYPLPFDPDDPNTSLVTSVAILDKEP
TEST DESCRIPTION: holdup assay
Set-up: key: below the threshold = too weak to quantify, mostly under pKd 3.1 to 4
PARTICULARS: plain residues with an end cap or a label only (N-terminal biotin on a linker: ttds)
Lab note: jot the number down without any unit.

Summary for this binder, QRQARSETLV [HPV59-E6, Q81964] : pKd is 6.04

// pKd value for SKPTRRETEV [HPV35-E6, P27228] : 5.13

Field pKd (entry RLPKIKETTV [FRMPD4, Q14CM0] ) reads 4.49

// sample SGSRPSATVV [HPV73-E6, Q82005] , its pKd was 4.15

Field pKd (entry PVRVCEETSL [OTULIN, Q96BN8] ) reads 4.01

The measured pKd associated with PRVKPQRSKV [PPP1R13L, Q8WUF5] reads 3.72

For reference, reported pKd for RPLPRKVSQL [DOCK4, Q8N1I0] stands at 4.51
